- TESTED SYSTEM: nucleocapsid (N) protein of SARS-CoV-2 (SARS-CoV-2-N) (Severe acute respiratory syndrome coronavirus 2, UniProt P0DTC9)
- Format: binding
- DETAILS: read-out: dissociation constant (KD)
REPORTED ENDPOINT: pKd
Please treat pKd as minus the base-10 logarithm of the molar concentration.

Form field pKd, entry CN(C)CC(=O)Nc1ccc2[nH]c(=O)c3ccccc3c2c1.Cl : 4.17

###

- System: Vero E6 cells
- DETAILS: CCK8, 48 h
REPORTED ENDPOINT: CC50 (µM)
Value expressed in µM; do not type the unit.

// sample CNCc1ccc(-c2cc3cc(F)cc(C(N)=O)c3o2)cc1 , its CC50 was 90.6
